target: erythrocytes infected with P. falciparum field isolate 11019; assay: flow cytometry, staining of IEs
measured-endpoint: % parasite recognition

Inquiry: Dear colleague, I am looking for the recorded % parasite recognition of the following binder: MGC33 (antibody) VH: EVHLVESGGGLVQPGGSLRLSCEASGFTFSSYWMTWVRQAPGKGLEWVANINQDGSERYYVDSVKGRFTISRDTVKNSLYLQMNNLRAEDTAVYYCARQRFCSDGSLFHGEDLPRPTISAETGTVISLGSHVTFVCRGPLGVQTFRLERESRSRYSETEDVSQVGPSESEARFRIDSVSEGNAGLYRCIYYKPPKWSEQSDYLELRVKGEDVTWALLTYCGGDRDESDYYMDVWGKGTTVTVSS VL: QTVVTQEPSLTVSPGGTVTLTCASSTGSVTSGSFPNWFQQTPGQAPRSLIYSTTKKHSWTPARFSGSLLGGKAALTVSDTQPEDEAEYYCLLYCGGGQPWVFGGGTKLTVQ
Reply text: 23.5%

Taken from patent US20180186897A1.
